- System: Staphylococcus aureus
- run description: Inhibition of Staphylococcus aureus caseinolytic protein protease using fluorogenic substrate assessed as residual activity at 10 uM after 15 mins
metric name: Activity (%)
# value in %; strip the unit string

Query: Fill in: Activity of C#CCCC[C@@H]1OC(=O)[C@H]1CCCCCCCCCCCC is ___
Reply: 95

Query: Fill in: Activity of CCCCCCCCCC[C@@H]1C(=O)O[C@H]1CCCCCSCCCN(C)C is ___
Reply: 1

Query: Fill in: Activity of CCCCCCCCCC[C@@H]1C(=O)O[C@H]1CCCSCCCN(C)C is ___
Reply: 40

Query: Fill in: Activity of CCCCCCCCCC[C@@H]1C(=O)O[C@H]1CCCCCS(=O)(=O)CCC[N+](C)(C)C is ___
Reply: 1

Query: Fill in: Activity of O=C1OC[C@H]1CCc1ccccc1 is ___
Reply: 108

Query: Fill in: Activity of CCCCCCCCCC[C@@H]1C(=O)O[C@H]1CCS(=O)(=O)CCCN(C)C is ___
Reply: 1

src = ChEMBL document CHEMBL3425403
